Experiment: Cytotoxicity counterscreen for inhibitors of SARS-CoV-2 cell entry (AID 1645845); note: nearly all actives have a fitted effect of over 50% in size
Settings: cell viability (SARS-CoV-2 entry assay cells); series mostly up to 57.1 µM
Results filed as inconclusive are left out. Calls of active or inactive are those of the source. Calls come from the whole dose curve.
Outcome codes: active, inactive

Compound | Category
Cc1onc(-c2ccccc2)c1C(=O)N[C@@H]1C(=O)N2[C@@H]1SC(C)(C)[C@@H]2C(=O)O | inactive
NC(=O)[C@@H](CC1CC1)[C@@H](CCC(F)(F)F)C(=O)N[C@H]1N=C(c2ccccc2)c2cccc(F)c2NC1=O | inactive
Cc1c(CCOc2ccc(C(=O)O)cc2)c2cc(Cl)ccc2n1C(c1ccccc1)c1ccccc1 | inactive
COc1ccc2cc(OCC3(C(=O)O)CN(C(=O)c4ccc(F)cc4)C3)ccc2c1 | inactive
O=C1NCCc2[nH]c(-c3ccncc3)cc21 | inactive
CNC(=O)c1ccc(-c2cnc3ncc(Cc4ccc5ncccc5c4)n3n2)cc1F | inactive
COc1cccc2c1C(=O)c1c(O)c3c(c(O)c1C2=O)C[C@@](O)(C(=O)CO)C[C@@H]3O[C@H]1C[C@H](N)[C@H](OC2CCCCO2)[C@H](C)O1 (stereo partly drawn) | active
O=C(Nc1ccccc1Br)N[C@@H]1CCN(c2ccc(C(F)(F)F)cn2)C1 | inactive
CC(C)c1cc(C(C)C)c(CC(=O)NS(=O)(=O)Oc2c(C(C)C)cccc2C(C)C)c(C(C)C)c1 | inactive
CC(N[C@H]1CCCC[C@H]1NC(=O)c1ccc(Cl)cc1)c1cccc2ccccc12 (stereo partly drawn) | inactive
Cn1ncc2cc(-c3cnc(N)c(Cl)c3N3CCC4(CCNC4=O)CC3)ccc21 | inactive
N#Cc1ccc(COC[C@H]2O[C@@H](n3c(NCc4ccc(Cl)c(Cl)c4)nc4c(N)ncnc43)[C@H](O)[C@@H]2O)cc1 | inactive
CC(=O)O[C@H]1C[C@@H]2CC[C@H]3[C@H]4C[C@H]([N+]5(C)CCCCC5)[C@@H](OC(C)=O)[C@@]4(C)CC[C@@H]3[C@@]2(C)C[C@H]1[N+]1(C)CCCCC1 | inactive
CCn1cc(-c2ccnc3[nH]c(-c4cccc(CN(C)C)c4)cc23)c(-c2ccc(NC(=O)N(C)C)cc2)n1 | inactive
C=C1C(=O)OC(CCCCCCCC)C1C(=O)O (stereo not drawn) | inactive
CCc1ccc(C(=O)Nc2cc(CN3CCN(C)CC3)cc(C(F)(F)F)c2)cc1C#Cc1cnc2ccnn2c1 | active
CC1(C)CNc2cc(NC(=O)c3cccnc3NCc3ccncc3)ccc21 | inactive
CC(C)(C)OC(=O)CN(Cc1ccc(Cl)cc1)Cc1ccc([N+](=O)[O-])s1 | inactive
COc1cc2c(Nc3ccc(NC(=O)c4ccccc4)cc3)ncnc2cc1OCCCN1CCOCC1 | active
Cc1cn([C@@H]2C[C@@H](O)[C@H](CO)O2)c(=O)[nH]c1=O | inactive
CCCNC(=O)Nc1ccc(Oc2ncnc3cc(OC)c(OC)cc23)cc1Cl | inactive
COC(=O)N(C)c1c(N)nc(-c2nn(Cc3ccccc3F)c3ncccc23)nc1N | inactive
O=C1C(c2c(O)[nH]c3ccccc23)=Nc2ccccc21 | inactive

---

System: CASKI
Assay: Primary qHTS to identify gynecologic anti-cancer compounds using libraries of approved drugs and bioactive compounds (AID 1345084); note: nearly all actives have a fitted effect of over 55% in size
Conditions: Gynecologic cancer cell panel viability, ATPlite luminescence, 48 h; series mostly up to 57.5 µM
Description: National Center for Advancing Translational Sciences [NCATS] Assay Overview: Chemotherapeutic drug responses vary from cancer to cancer and from patient to patient. […] ATPlite is a luminescence based assay reliant on the conversion of a luciferase substrate to light in the presence of ATP. As a cytotoxic compound will suppress growth and decrease the number of cells, the concentration of ATP will decrease, and less light signal will be detected in the well. […]
Inconclusive results are not listed. The source made the active and inactive calls. Calls follow the shape of the dose curve; as a rule, active = well fitted cell-killing curve with a large enough effect; inconclusive = small, poorly fitted or top-dose-only effect, or effect the other way; inactive = flat fitted curve, though single readings scatter.
Outcome codes: active, inactive

Compound | Category
CC1=CC(=O)[C@@H](O)[C@]2(C)C3[C@@H](O)[C@@H]4OC(=O)[C@@H]([C@H]4C)[C@]3(C)C(=O)[C@H](O)[C@@H]12 (stereo partly drawn) | inactive
C/C=C(\C)C(=O)O[C@@H]1[C@@H](C)[C@]2(O)C3C=C(C)C(=O)[C@@]3(O)CC(CO)=C[C@H]2C2C(C)(C)[C@@]21OC(=O)C(C)CC (stereo partly drawn) | inactive
CC(=O)OC[C@]12C[C@H](O)C(C)=C[C@H]1O[C@@H]1[C@H](O)[C@@H](OC(C)=O)[C@@]2(C)[C@]12CO2 | active
